# maps each entry to its ASPARTATE AMINOTRANSFERASE
Organism: Rattus norvegicus
EXPERIMENT SUMMARY: DrugMatrix - Regimen: Daily Repeat
Format: toxicity, organism-based, Sprague-Dawley
Set-up: regimen Daily Repeat, gender Male, age 6-8 weeks
MEASUREMENT CONTEXT: in vivo, po, 0 mg/kg, 120 h, tissue Plasma, route oral GAVAGE, dose level Control, time 5 day, vehicle 100 % WATER
OBSERVABLE: ASPARTATE AMINOTRANSFERASE (u/L)

CC(C)NCC(O)c1ccc(NS(C)(=O)=O)cc1 (configuration not stated)    91.33
O.O.O.O.O.O.[Cl-].[Cl-].[Sr+2] [STRONTIUM CHLORIDE HEXAHYDRATE]    80
CN(C)CC[C@@H](c1ccc(Cl)cc1)c1ccccn1    87.67
NNc1nncc2ccccc12 [HYDRALAZINE]    89.83
CC(C)(C)CC(C)(C)c1ccc(OCCOCC[N+](C)(C)Cc2ccccc2)cc1.[Cl-] [BENZETHONIUM CHLORIDE]    89.83
CCN(CC)CCNC(=O)c1cc(S(C)(=O)=O)ccc1OC [TIAPRIDE]    80
Oc1cccc(O)c1O    62.33
CS(=O)(=O)c1ccc([C@@H](O)[C@@H](CO)NC(=O)C(Cl)Cl)cc1    80
CN(C)CCOC(c1ccccc1)c1ccccc1 [DIPHENHYDRAMINE]    89.83
CN1[C@@H]2CC[C@H]1C[C@@H](OC(=O)C(CO)c1ccccc1)C2 (some centres not stated)    88
C[C@]12C=CC(=O)C=C1CC[C@@H]1[C@@H]2[C@@H](O)C[C@@]2(C)[C@H]1CC[C@]2(O)C(=O)CO    91
Cn1c(=O)c2[nH]cnc2n(C)c1=O.O    92.5

----------
# maps each entry to its LIPASE
Species: Rattus norvegicus
EXPERIMENT SUMMARY: DrugMatrix - Regimen: Daily Repeat
Type: toxicity, organism-based, Sprague-Dawley
Parameters: regimen Daily Repeat, gender Male, age 6-8 weeks
MEASUREMENT CONTEXT: in vivo, po, 2000 mg/kg, 120 h, tissue Plasma, route oral GAVAGE, dose level High, time 5 day, vehicle .5 % CMC
OBSERVABLE: LIPASE (u/L)

CC1(C)S[C@@H]2[C@H](NC(=O)[C@H](N)c3ccccc3)C(=O)N2[C@H]1C(=O)O [AMPICILLIN]    9.67
COc1cc2nc(N3CCN(C(=O)c4ccco4)CC3)nc(N)c2cc1OC [PRAZOSIN]    9
O=C1Nc2ccc(Cl)cc2C(c2ccccc2Cl)=NC1O (centres undefined) [LORAZEPAM]    17.5
CN/C(=N/CCSCc1nc[nH]c1C)NC#N [CIMETIDINE]    8

----------
Organism: Rattus norvegicus
EXPERIMENT SUMMARY: DrugMatrix - Regimen: Daily Repeat
Assay type: toxicity, organism-based, Sprague-Dawley
Design: regimen Daily Repeat, gender Male, age 6-8 weeks
MEASUREMENT CONTEXT: in vivo, po, 0 mg/kg, 120 h, tissue Plasma, route oral GAVAGE, dose level Control, time 5 day, vehicle 100 % WATER
# maps each entry to its BLOOD UREA NITROGEN
OBSERVABLE: BLOOD UREA NITROGEN

C[C@]12C=CC(=O)C=C1CC[C@@H]1[C@@H]2[C@@H](O)C[C@@]2(C)[C@H]1CC[C@]2(O)C(=O)CO    15.33 mg/dL
CN(C)CC[C@@H](c1ccc(Cl)cc1)c1ccccn1    15.33 mg/dL
CCN(CC)CCNC(=O)c1cc(S(C)(=O)=O)ccc1OC [TIAPRIDE]    16 mg/dL
O.O.O.O.O.O.[Cl-].[Cl-].[Sr+2] [STRONTIUM CHLORIDE HEXAHYDRATE]    16 mg/dL
NNc1nncc2ccccc12 [HYDRALAZINE]    17.67 mg/dL

----------
Species on record: Rattus norvegicus
EXPERIMENT SUMMARY: DrugMatrix - Regimen: Daily Repeat
Format: toxicity, organism-based, Sprague-Dawley
Design: regimen Daily Repeat, gender Male, age 6-8 weeks
MEASUREMENT CONTEXT: in vivo, po, 0 mg/kg, 120 h, tissue Plasma, route oral GAVAGE, dose level Control, time 5 day, […]
OBSERVABLE: LACTATE DEHYDROGENASE (u/L)

COc1cc(N)c(Cl)cc1C(=O)NC1CCN(CCCOc2ccc(F)cc2)CC1OC (centres undefined) [CISAPRIDE]    104.83
CC(C)(C)NC(=O)[C@H]1CC[C@H]2[C@@H]3CC[C@H]4NC(=O)C=C[C@]4(C)[C@H]3CC[C@]12C [FINASTERIDE]    92.33
Clc1ccc(COC(Cn2ccnc2)c2ccc(Cl)cc2Cl)cc1 (centres undefined) [ECONAZOLE]    118
CO[C@H]1/C=C/O[C@@]2(C)Oc3c(C)c(O)c4c(O)c(c(/C=N/N5CCN(C6CCCC6)CC5)c(O)c4c3C2=O)NC(=O)/C(C)=C\C=C\[C@H](C)[C@H](O)[C@@H](C)[C@@H](O)[C@@H](C)[C@H](OC(C)=O)[C@@H]1C [RIFAPENTINE]    518.17

----------
Species: Rattus norvegicus
EXPERIMENT SUMMARY: DrugMatrix - Regimen: Daily Repeat
Type: toxicity, organism-based, Sprague-Dawley
Parameters: regimen Daily Repeat, gender Male, age 6-8 weeks
MEASUREMENT CONTEXT: in vivo, po, 1500 mg/kg, 120 h, tissue Plasma, route oral GAVAGE, dose level High, time 5 day, vehicle .5 % CMC
# maps each entry to its PHOSPHORUS
OBSERVABLE: PHOSPHORUS (mg/dL)

COC(=O)Nc1nc2ccc([S+]([O-])c3ccccc3)cc2[nH]1 (stereo not given)    13.13
CN(C)[C@@H]1C(O)=C(C(N)=O)C(=O)[C@@]2(O)C(O)=C3C(=O)c4c(O)ccc(Cl)c4[C@@](C)(O)[C@H]3C[C@@H]12    11.03
CC(C)Oc1ccc2c(=O)c(-c3ccccc3)coc2c1    11.6
O=c1cnn([C@@H]2O[C@H](CO)[C@@H](O)[C@H]2O)c(=O)[nH]1    11.03
CC(C)=CCC/C(C)=C/CO    12.2

----------
Species: Rattus norvegicus
EXPERIMENT SUMMARY: DrugMatrix - Regimen: Daily Repeat
Assay type: toxicity, organism-based, Sprague-Dawley
Parameters: regimen Daily Repeat, gender Male, age 6-8 weeks
MEASUREMENT CONTEXT: in vivo, po, 0 mg/kg, 120 h, tissue Blood, route oral GAVAGE, dose level Control, time 5 day, vehicle 100 % SALINE
OBSERVABLE: ABSOLUTE EOSINOPHIL (CELLS/uL)

NC(=O)C[S+]([O-])C(c1ccccc1)c1ccccc1 (configuration not stated) [MODAFINIL]    0

----------
Species on record: Rattus norvegicus
EXPERIMENT SUMMARY: DrugMatrix - Regimen: Daily Repeat
Type: toxicity, organism-based, Sprague-Dawley
Parameters: regimen Daily Repeat, gender Male, age 6-8 weeks
MEASUREMENT CONTEXT: in vivo, po, 0 mg/kg, 120 h, tissue Blood, route oral GAVAGE, dose level Control, time 5 day, […]
# maps each entry to its LEUKOCYTE COUNT
OBSERVABLE: LEUKOCYTE COUNT (x10E3/uL)

CO[C@H]1/C=C/O[C@@]2(C)Oc3c(C)c(O)c4c(O)c(c(/C=N/N5CCN(C6CCCC6)CC5)c(O)c4c3C2=O)NC(=O)/C(C)=C\C=C\[C@H](C)[C@H](O)[C@@H](C)[C@@H](O)[C@@H](C)[C@H](OC(C)=O)[C@@H]1C    16.52
Clc1ccc(COC(Cn2ccnc2)c2ccc(Cl)cc2Cl)cc1 (centres undefined)    4.87
COc1cc(N)c(Cl)cc1C(=O)NC1CCN(CCCOc2ccc(F)cc2)CC1OC (centres undefined) [CISAPRIDE]    12.2
CC(C)(C)NC(=O)[C@H]1CC[C@H]2[C@@H]3CC[C@H]4NC(=O)C=C[C@]4(C)[C@H]3CC[C@]12C [FINASTERIDE]    9.87

----------
Species: Rattus norvegicus
EXPERIMENT SUMMARY: DrugMatrix - Regimen: Daily Repeat
Format: toxicity, organism-based, Sprague-Dawley
Set-up: regimen Daily Repeat, gender Male, age 6-8 weeks
MEASUREMENT CONTEXT: in vivo, po, 2000 mg/kg, 120 h, tissue Plasma, route oral GAVAGE, dose level High, time 5 day, vehicle .5 % CMC
# maps each entry to its CHLORIDE
OBSERVABLE: CHLORIDE (MEQ/L)

COc1cc2nc(N3CCN(C(=O)c4ccco4)CC3)nc(N)c2cc1OC    104.67
NC1CCN(c2nc3c(cc2F)c(=O)c(C(=O)O)cn3-c2ccc(F)cc2F)C1 (stereo unspecified)    108
O=C1Nc2ccc(Cl)cc2C(c2ccccc2Cl)=NC1O (stereo unspecified)    100.5
CN(C/C=C/C#CC(C)(C)C)Cc1cccc2ccccc12    106.33
CC1(C)S[C@@H]2[C@H](NC(=O)[C@H](N)c3ccccc3)C(=O)N2[C@H]1C(=O)O    106.67
CN/C(=N/CCSCc1nc[nH]c1C)NC#N    100.33

Origin of values: ChEMBL document CHEMBL3885881
